experiment: UV absorption (λmax, molar and specific extinction, intrinsic coloration); format: physicochemical; conditions: Table 2
Attribute Measured: specific extinction E^1
Keep the answer to the number alone.

Examples from the recorded data:
>>> print(df.to_string())
                                   compound  observed_result
0  O=C(c1ccc(O)cc1O)c1ccc(O)cc1O [Comparison example 2, 2,2',4,4'-tetrahydroxybenzophenone, reference compound]              645
1       CCOC(=O)C(=CN1CCCc2ccccc21)C(=O)OCC              878
2  CC(C)COC(=O)C(=CN1c2ccccc2CC1C)C(=O)OCC(C)C (stereo not shown)              730
3        CCOC(=O)C(=CN1CCc2ccccc21)C(=O)OCC             1114
4  CCOC(=O)C(=CN1c2ccccc2CC1C)C(=O)OCC (stereo not shown)             1008

[in] Give recorded specific extinction E^1. COc1ccc(C(=O)c2cc(S(=O)(=O)O)c(OC)cc2O)c(O)c1 [Comparison example 1, reference compound]
[out] 160

[in] Recall and state the measured specific extinction E^1 for CCCCCCOC(=O)C(=CN1c2ccccc2CC1C)C(=O)OCCCCCC (stereo not shown) .
[out] 582

====

test: UV absorption (λmax, molar and specific extinction, intrinsic coloration); type: physicochemical; settings: Table 1
Attribute Measured: λmax (nm)
Field: numeric (nm). Do not append units.

>>> df
                                   compound  units  observed_result
0  CCOC(=O)C(=CN1CCc2ccccc21)C(=O)OCC [(1), N-(dicarboethoxyvinyl)indoline]     nm              330

[in] Let me know recorded λmax for CCOC(=O)C(C(=O)OCC)=C(C)N1CCc2ccccc21 [(3)] , thanks.
[out] 338

[in] Give the reported λmax for this compound. CCOC(=O)C(=CN1c2ccccc2CC1C)C(=O)OCC (stereo not drawn) [Compound (2), N-(dicarboethoxyvinyl)-2-methylindoline]
[out] 330

[in] Identify measured λmax corresponding to CC(C)COC(=O)C(=CN1c2ccccc2CC1C)C(=O)OCC(C)C (stereo not drawn) [(4)]
[out] 331

[in] Quick one: give measured λmax for CCOC(=O)C(=CN1CCCc2ccccc21)C(=O)OCC [(6)]
[out] 317

[in] Let me know recorded λmax for CCCCCCOC(=O)C(=CN1c2ccccc2CC1C)C(=O)OCCCCCC (stereo not drawn) [(5)] , thanks.
[out] 332

====

The compounds listed here are annotated with their λmax.
experiment: UV absorption (λmax, molar and specific extinction, intrinsic coloration); format: physicochemical; details: Table 2
Value expressed in nm; do not type the unit.

The following compounds have reported results that may help.
                                   compound  attribute_measured  observed_result
0  CCCCCCOC(=O)C(=CN1c2ccccc2CC1C)C(=O)OCCCCCC (centres unmarked) [(5)]                λmax              332
1  COc1ccc(C(=O)c2cc(S(=O)(=O)O)c(OC)cc2O)c(O)c1 [Comparison example 1, reference compound]                λmax              330

[in] Please indicate λmax recorded for O=C(c1ccc(O)cc1O)c1ccc(O)cc1O [Comparison example 2, 2,2',4,4'-tetrahydroxybenzophenone, reference compound]
[out] 351

[in] Identify λmax associated with the compound CCOC(=O)C(C(=O)OCC)=C(C)N1CCc2ccccc21 [(3)]
[out] 338

[in] Supply measured λmax of CCOC(=O)C(=CN1CCc2ccccc21)C(=O)OCC [(1), N-(dicarboethoxyvinyl)indoline] in your reply.
[out] 330
